Measured TGI accompanies every entry in the list below.
# Tested on: IGROV1 ovarian
# experimentDescription: NCI tumour cell line growth inhibition, 48 h

COc1ccc(C(=O)C(c2ccc(OC)cc2)C2(O)C(=O)Nc3ccc([N+](=O)[O-])cc32)cc1 (stereo not given)	> 100 µM
C=C(CNCc1ccccc1)c1ccc(C(=O)Nc2ccccc2N)cc1	36.9 µM
COC1(OC)CC2C(=O)N(Cc3ccccc3)C1C(S(=O)(=O)c1ccccc1)C2S(=O)(=O)c1ccccc1 (stereo not given)	32.3 µM
Cc1ccc(Cc2c(=O)[nH]nc3ccccc23)cc1	> 100 µM

QUERY: Please report TGI with IGROV1 ovarian for item CC(=O)N(C)c1ccc(Nc2cc(C)[nH]c3ccc4ncnc4c23)cc1 .
RESULT: 64.4 µM

---

Measured TGI accompanies every entry in the list below.
# Tested on: SNB-19 CNS
# experimentDescription: NCI tumour cell line growth inhibition, 48 h

N=C1/C(=C/c2ccc(F)cc2)C(=O)N=C2SC=NN12	> 100 µM

QUERY: Query TGI for CCn1c(-c2nonc2N)nc2c(C#CC(C)(C)O)nc(OC[C@H](N)c3ccccc3)cc21
RESULT: 20.5 µM

QUERY: Query TGI for CCOC(=O)C1(C#N)C(c2ccccc2)CC(O)(c2ccc(OC)cc2)C(C(=O)c2ccc(OC)cc2)C1c1ccccc1 (stereo not drawn)
RESULT: > 100 µM

---

# System: NCI-H23 lung
# experimentDescription: NCI tumour cell line growth inhibition, 48 h
observedProperty: TGI

N#Cc1nc2ccccc2nc1N1CCN(c2ccc([N+](=O)[O-])cc2)CC1	> 100 µM
CNC(C#N)c1ccc(OC)cc1 (stereo not given)	> 100 µM
O=c1cc(N2CCOCC2)[nH]c(=O)n1-c1ccc(F)cc1	> 100 µM
NC(=O)NC1C(c2ccccc2)=C1c1ccccc1	61.4 µM
O=C1C2CC=CCC2C(=O)N1n1c(Cc2ccc(Cl)cc2)n[nH]c1=O (stereo not given)	> 100 µM
CCCn1c2ccccc2c2ccc3c(c21)C(=O)C=CC3=O	5.99 µM
O=C(O)c1ccc(N=C(C(=Nc2ccc(C(=O)O)cc2)c2ccccc2)c2ccccc2)cc1	> 100 µM
CCOC(=O)c1c(NC(=O)c2cccs2)sc2c1CCCC2	> 100 µM
CC(C)(C)NC(NC(C)(C)C)=C(/C=C(/Cl)[N+](=O)[O-])[N+](=O)[O-]	> 100 µM
CC(C)C(=O)[C@@]1(C)SC[C@H]2CCN=C21	> 100 µM

Now look at this one.
QUERY: Query TGI for O=C(O)CC1NC(/C(=C/c2ccccc2)NC(=O)c2ccccc2)OC1=O (stereo not given)
RESULT: > 100 µM

---

Measured TGI accompanies every entry in the list below.
# Test system: SR leukemia
# experimentDescription: NCI tumour cell line growth inhibition, 48 h
Report the value in µM with no unit label.

Answered cases to consult:
O=[N+]([O-])c1ccc(C2=Nn3cnnc3SC2)o1	39.4
COc1cc2nc(-c3ccc(Cl)cc3)cc(OCCCN3CCCCC3)c2cc1OC	2.85
COc1ccc(/C=C(/C(=O)N2CCN(c3ccccc3)CC2)c2cc(OC)c(OC)c(OC)c2)cc1O	58.4

Now look at this one.
QUERY: Query TGI for CCN1CCN(C(c2ccc(C(F)(F)F)cc2)c2ccc3cccnc3c2O)CC1 (stereo unspecified)
RESULT: 11
